molecular target: human ether-à-go-go-related gene (hERG) potassium channel (human, UniProt Q12809); assay: primary screen, population patch clamp on CHO cells stably expressing hERG; higher = less effect of the substance;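 note: peak tail current of the secondary pulse compared with the same well before compound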
Sequence (Q12809 whole entry, looked up): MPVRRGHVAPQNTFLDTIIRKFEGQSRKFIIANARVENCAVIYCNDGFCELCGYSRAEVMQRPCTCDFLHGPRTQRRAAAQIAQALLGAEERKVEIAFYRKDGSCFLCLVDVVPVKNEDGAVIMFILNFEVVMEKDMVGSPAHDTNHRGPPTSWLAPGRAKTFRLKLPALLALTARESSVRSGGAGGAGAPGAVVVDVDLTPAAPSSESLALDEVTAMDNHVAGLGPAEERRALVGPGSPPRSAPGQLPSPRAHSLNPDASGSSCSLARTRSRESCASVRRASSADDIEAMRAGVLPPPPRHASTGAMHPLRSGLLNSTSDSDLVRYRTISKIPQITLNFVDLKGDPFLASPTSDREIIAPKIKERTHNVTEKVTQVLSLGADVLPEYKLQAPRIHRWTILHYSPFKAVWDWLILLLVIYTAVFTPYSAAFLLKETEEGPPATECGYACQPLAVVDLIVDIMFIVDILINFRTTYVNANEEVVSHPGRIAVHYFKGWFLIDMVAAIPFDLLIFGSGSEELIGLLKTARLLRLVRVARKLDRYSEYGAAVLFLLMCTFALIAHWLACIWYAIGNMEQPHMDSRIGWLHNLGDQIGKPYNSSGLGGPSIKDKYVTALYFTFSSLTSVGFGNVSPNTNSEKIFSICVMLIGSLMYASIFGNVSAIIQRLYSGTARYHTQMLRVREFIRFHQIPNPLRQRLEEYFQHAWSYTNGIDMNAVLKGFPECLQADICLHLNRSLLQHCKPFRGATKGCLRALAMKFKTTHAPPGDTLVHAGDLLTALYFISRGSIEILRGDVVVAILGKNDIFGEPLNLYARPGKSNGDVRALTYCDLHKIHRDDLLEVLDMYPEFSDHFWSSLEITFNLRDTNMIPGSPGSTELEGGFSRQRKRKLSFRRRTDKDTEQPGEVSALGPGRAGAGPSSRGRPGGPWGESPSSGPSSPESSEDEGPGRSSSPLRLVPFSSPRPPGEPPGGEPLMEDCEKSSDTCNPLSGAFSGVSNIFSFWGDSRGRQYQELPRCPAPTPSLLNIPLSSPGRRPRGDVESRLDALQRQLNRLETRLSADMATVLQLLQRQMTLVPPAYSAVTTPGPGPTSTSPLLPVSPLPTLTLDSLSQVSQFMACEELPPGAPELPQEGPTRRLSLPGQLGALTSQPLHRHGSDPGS
About 14,000 (4.5%) of roughly 310,000 compounds showed an effect of 50% or more. Effects have a minus sign here. Only a selection was taken, and strong results are over-represented in it overall.
For each record, write down the corresponding hERG current change (%, negative = inhibition) at 10uM.
Answers are plain numbers, in %.

Guide cases for hERG current change (%, negative = inhibition) at 10uM, answers given:
O=[N+]([O-])c1ccc(C[n+]2c(-c3ccccc3)cc(-c3ccccc3)cc2-c2ccccc2)cc1.[O-][Cl+3]([O-])([O-])[O-] = -25.8
O=[N+]([O-])c1ccccc1NCc1ccccc1Cl = -4.13
C/C(=N/n1cnnc1)c1cccnc1 = -0.855
O=c1ccc(-c2nc3ccccc3n2Cc2ccc(Cl)cc2)c[nH]1 = -76
N#CC(C#N)=NNc1ccc(S(=O)(=O)N2CCCC2)cc1 = -17.8
Cc1cc[n+](Cc2ccccc2)cc1.[O-][Cl+3]([O-])([O-])[O-] = 18.9
Clc1ncccc1-c1nc2ccccc2n1Cc1ccccc1 = -33.5
Cc1nn(CCc2nn[nH]n2)c2nc(-c3ccccc3)cc(C(F)(F)F)c12 = 19.3
Clc1ccc(Cn2c(-c3cccnc3Cl)nc3ccccc32)c(Cl)c1 = -22.1
COc1cc(NC(=O)CS(=O)(=O)c2ccccc2)cc(OC)c1OC = 11.3

For each of the compounds below, note its hERG current change (%, negative = inhibition) at 10uM.
1. CCOC(=O)c1ccc(NC(=O)CC2C(=O)N(c3ccc(F)cc3)C(=O)N2CCC(C)C)cc1 (stereo not drawn)
2. O=[N+]([O-])c1cc(Cl)c(O)c(-[n+]2c(-c3ccccc3)cc(-c3ccccc3)cc2-c2ccccc2)c1.[O-][Cl+3]([O-])([O-])[O-]
3. Cc1cccc(C)c1N1CCc2cn[nH]c21
4. Nc1nnc(-c2ccccc2)c(-c2ccccc2)n1
5. Clc1ccc(C[n+]2c(-c3ccccc3)cc(-c3ccccc3)cc2-c2ccccc2)cc1.[O-][Cl+3]([O-])([O-])[O-]
6. O=C([O-])c1cc(-c2ccccc2)cc(-c2ccccc2)[n+]1Cc1ccccc1
7. O=[N+]([O-])c1ccccc1-c1cc(-c2ccccc2)cc(-c2ccccc2)[n+]1Cc1ccccc1Cl.[O-][Cl+3]([O-])([O-])[O-]
8. O=c1[nH]cccc1-c1nc2cc(Cl)ccc2n1Cc1ccccc1

1. -8.43
2. -38.7
3. 8.17
4. -10.7
5. -79.5
6. -10.1
7. -78.7
8. -12

Each recorded value in this set is attributed to paper PMC4336329.
